- condition_details: 303.15 K; 101.33 kPa; Liquid; Capillary tube (Ostwald / Ubbelohde) method

- molecule: "CCN(CC)CC [triethylamine]"
  unit_abbreviation: "mPa·s"
  viscosity: 0.3296
- molecule: "CCCN(CCC)CCC [tripropylamine]"
  unit_abbreviation: "mPa·s"
  viscosity: 0.5977
- molecule: "CCCCN(CCCC)CCCC [tributylamine]"
  unit_abbreviation: "mPa·s"
  viscosity: 1.167
- molecule: "C1COCCO1 [1,4-dioxane]"
  unit_abbreviation: "mPa·s"
  viscosity: 1.075
- molecule: "CCCCN [1-butanamine]"
  unit_abbreviation: "mPa·s"
  viscosity: 0.4442
- molecule: "CCCNCCC [dipropylamine]"
  unit_abbreviation: "mPa·s"
  viscosity: 0.5118
- molecule: "CCCCNCCCC [dibutylamine]"
  unit_abbreviation: "mPa·s"
  viscosity: 0.7584
- molecule: "C1CCOC1 [tetrahydrofuran]"
  unit_abbreviation: "mPa·s"
  viscosity: 0.326
- molecule: "CCCN [propan-1-amine]"
  unit_abbreviation: "mPa·s"
  viscosity: 0.3527
